IC50 values for the compounds below.
- Test system: XBP1(u)-luciferase splicing reporter in HepG2 hepatoma cells
- protocol_text: HepG2 XBP1 reporter assay (XBP1(u)-Luc)
- Format: cell-based
- condition: Homo sapiens, 6 hours after compound addition, Table 4

In the examples that follow, each entry is paired with its recorded IC50.
Which measured IC50 belongs to Cc1cc(N2CCCOCC2c2ccc(O[C@H](C)CO)cc2Cl)nc(N)n1 (stereo partly drawn) , tested on XBP1(u)-luciferase splicing reporter in HepG2 hepatoma cells?
600 to 2000 nM

Which measured IC50 belongs to "Nc1nccc(N2CCCOC[C@@H]2c2cc3c(cc2Cl)OCCCO3)n1" , tested on XBP1(u)-luciferase splicing reporter in HepG2 hepatoma cells?
< 600 nM

Which measured IC50 belongs to Cc1cc(N2CCCOCC2c2cc(F)c(O)cc2Cl)nc(N)n1 (stereo not drawn) , tested on XBP1(u)-luciferase splicing reporter in HepG2 hepatoma cells?
600 to 2000 nM

Which measured IC50 belongs to Cc1cc(N2CCCOCC2c2cc(N)c(C(F)(F)F)cc2Cl)nc(N)n1 (stereo not drawn) , tested on XBP1(u)-luciferase splicing reporter in HepG2 hepatoma cells?
600 to 2000 nM

***
Which measured IC50 belongs to COc1cc(C2COCCCN2c2cc(C)nc(N)n2)c(Cl)cc1OC(C)C (stereo not drawn) , tested on XBP1(u)-luciferase splicing reporter in HepG2 hepatoma cells?
< 600 nM
